MEASUREMENT_TARGET: recombinant human GM-CSF protein (human, UniProt P04141 18-144)
Sequence (P04141 18-144 limits assumed): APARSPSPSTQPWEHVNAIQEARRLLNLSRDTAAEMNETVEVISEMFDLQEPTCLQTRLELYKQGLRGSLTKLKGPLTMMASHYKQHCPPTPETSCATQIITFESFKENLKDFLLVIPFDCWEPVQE
ASSAY_EXPLANATION: cell-based or functional assay
REPORTED_PROPERTY: IC50 for TF-1 proliferation (ng/mL)
Write the answer as a number in ng/mL, unit excluded.

Req: Data request, read-out IC50 for TF-1 proliferation, for Hu23F4-20 (antibody, V domains shown, Humanized) VH: EVQLVQSGAEVKKPGASVKVSCKASGYTFTSHYLHWVRQAPGQGLEWMGWIFPGDDKTKYNEKFKGRVTMTRDTSISTAYMELSRLRSDDTAVYYCARGTKYLNWNFDVWGQGTTVTVSS VL: DIQLTQSPSFLSASVGDRVTITCKANQNVGTTLAWYQQKPGKAPKLLIYSASYRYSGVPSRFSGSGSGTEFTLTISSLQPEDFATYYCHQYTTYPLTFGGGTKVEIK
Resp: 8.77
